Just for reference, patent US10577363B2 is where these values come from.

Target: SMYD3 (Homo sapiens (Human), UniProt Q9H7B4)
Sequence (Q9H7B4 whole entry): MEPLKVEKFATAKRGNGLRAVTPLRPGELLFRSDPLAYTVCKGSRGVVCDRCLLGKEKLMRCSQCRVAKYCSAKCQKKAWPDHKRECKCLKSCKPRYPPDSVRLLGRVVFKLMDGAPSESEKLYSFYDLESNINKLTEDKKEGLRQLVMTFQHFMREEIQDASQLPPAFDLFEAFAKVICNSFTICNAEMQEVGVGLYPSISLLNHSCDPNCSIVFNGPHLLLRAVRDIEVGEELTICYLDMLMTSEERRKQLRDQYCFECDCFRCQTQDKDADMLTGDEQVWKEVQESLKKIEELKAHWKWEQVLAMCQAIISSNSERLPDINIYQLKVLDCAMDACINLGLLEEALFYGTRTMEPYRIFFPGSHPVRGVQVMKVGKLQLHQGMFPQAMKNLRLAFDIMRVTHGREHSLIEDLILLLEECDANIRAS
Assay: SMYD3 cell assay (Trimethyl-MEKK2 In-Cell Western in 293T/17 cells)
Type: cell-based
Details: 293T/17 cells; read-out: SMYD3 Cell IC50 (μM)*

[
  {
    "molecule": "O=C(N[C@@H]1CCN(S(=O)(=O)CCCN2CCOCC2)[C@H](Cc2ccccc2)C1)c1cc(C2CC2)on1",
    "IC50": "> 10 µM"
  },
  {
    "molecule": "C[C@@H]1C[C@@H](NC(=O)c2cc(C3CC3)on2)CCN1S(=O)(=O)c1cn(C)cn1",
    "IC50": "> 40 µM"
  },
  {
    "molecule": "C[C@@H]1C[C@@H](NC(=O)c2cc(C3CC3)on2)CCN1C(=O)CC(CN)Cc1ccccc1 (stereo partly drawn)",
    "IC50": "> 40 µM"
  }
]
